Tested on: MDA-MB-231
Assay: Cytotoxicity against human MDA-MB-231 cells after 72 hrs by sulforhodamine B assay
Format: functional, cell-based
Conditions: MDA-MB-231, 72 h
Entries are sorted into classes by IC50 as follows: b0: < 8 µM; b1: ≥ 8 µM and < 80 µM; b2: ≥ 80 µM

compound	class.name
O=C(O)Cc1cc(-c2ccc3cc(O)ccc3c2)ccc1O	b2
COc1ccc2cc(-c3ccc(OC)c(C=O)c3)ccc2c1	b2
COc1ccc2cc(-c3ccc(N)c(C)c3)ccc2c1	b2
COC(=O)c1ccc(C)c(-c2ccc3cc(OC)ccc3c2)c1	b2
COc1ccc2cc(-c3ccc(O)c(C(=O)O)c3)ccc2c1	b2
COC(=O)Cc1cc(-c2ccc3cc(OC)ccc3c2)ccc1O	b2
Cc1cc(-c2ccc3cc(O)ccc3c2)ccc1N	b0
COc1cc([C@@H]2c3cc4c(cc3[C@@H](O[C@@H]3O[C@@H]5CO[C@@H](C)O[C@H]5[C@H](O)[C@H]3O)[C@H]3COC(=O)[C@H]23)OCO4)cc(OC)c1O [ETOPOSIDE]	b0
COC(=O)Cc1ccc(-c2ccc3cc(OC)ccc3c2)cc1	b2
O=C(O)c1cc(-c2ccc3cc(O)ccc3c2)ccc1O	b1
COc1ccc2cc(-c3cccc(C(F)(F)F)c3)ccc2c1	b2
COc1ccc2cc(-c3cccc(CO)c3)ccc2c1	b1
Oc1ccc2cc(-c3ccc(O)c(O)c3)ccc2c1	b0
Oc1ccc(-c2ccc3cc(O)ccc3c2)cc1	b1
OCc1cc(-c2ccc3cc(O)ccc3c2)ccc1O	b0
COc1ccc2cc(-c3ccc(CO)cc3)ccc2c1	b2
OCCc1cc(-c2ccc3cc(O)ccc3c2)ccc1O	b0
COc1ccc2cc(-c3ccc(OC)c(OC)c3)ccc2c1	b2
COc1cc(-c2ccc3cc(O)ccc3c2)cc(C=O)c1O	b0
Cc1ccc(C(=O)O)c(-c2ccc3cc(O)ccc3c2)c1	b2
CC(=O)c1cc(-c2ccc3cc(O)ccc3c2)cc([N+](=O)[O-])c1O	b0
COc1ccc2cc(-c3ccc(O)cc3)ccc2c1	b2
COc1ccc2cc(-c3ccc([N+](=O)[O-])c(C(F)(F)F)c3)ccc2c1	b2
COc1ccc2cc(-c3ccc(C(F)(F)F)cc3)ccc2c1	b1
COc1ccc2cc(-c3cc(C=O)c(O)c(OC)c3)ccc2c1	b1
COc1ccc2cc(-c3ccc(CC(=O)O)cc3)ccc2c1	b2
COC(=O)c1ccc(-c2ccc3cc(OC)ccc3c2)cc1O	b1
COc1ccc2cc(-c3cc(C=O)ccc3O)ccc2c1	b1
Nc1ccc(-c2ccc3cc(O)ccc3c2)cc1	b1
OCc1cccc(-c2ccc3cc(O)ccc3c2)c1	b0
COC(=O)c1ccc(C)c(-c2ccc3cc(O)ccc3c2)c1	b0
COC(=O)c1ccc(-c2ccc3cc(OC)ccc3c2)cc1	b2
COc1ccc2cc(-c3ccc(CCO)c(O)c3)ccc2c1	b2
CC(O)c1ccc(-c2ccc3cc(O)ccc3c2)cc1 (stereo unspecified)	b0
COC(=O)c1ccc(O)c(-c2ccc3cc(O)ccc3c2)c1	b0

Data credit: ChEMBL document CHEMBL3351570
